T/C values for the compounds below.
# Test system: P388 leukemia ip, CD2F1 mice, survival T/C
# test: NCI In Vivo Anticancer Drug Screen. Data for tumor model P388 Leukemia (intraperitoneal) in CD2F1 (CDF1) mice
# recorded conditions: endpoint: median survival time; dose: 100.0 mg/kg/injection; schedule: Q04DX003 (ip); vehicle: saline; higher = longer survival
Inconclusive results and toxic doses are left out.

Below: 2 compounds and their reported T/C.
> print(dat)
                                   compound                              assay.target       assay.value
1       CCCNC(=S)N/N=C\C(C)=N\Nc1ccc(Cl)cc1  P388 leukemia ip, CD2F1 mice, survival T/C   95 % of control
2  O=C(c1cccnc1)C(CCc1ccccn1)c1ccccn1 (stereo not drawn)  P388 leukemia ip, CD2F1 mice, survival T/C  100 % of control

May I ask what T/C has been recorded for `O=c1[nH]oc2c1CCNC2` ?
98 % of control

May I ask what T/C has been recorded for COc1ccc(C2C3CCCC(C3=O)C(c3ccc(OC)cc3)N2C)cc1 (stereo not drawn) ?
99 % of control

May I ask what T/C has been recorded for CC1NS(=O)(=O)c2ccccc2C1=O (stereo not drawn) ?
100 % of control

May I ask what T/C has been recorded for `CC(=O)/C=C1\C(=O)OCC1(C)C` ?
105 % of control

###

# Test system: P388 leukemia ip, CD2F1 mice, survival T/C
# test: NCI In Vivo Anticancer Drug Screen. Data for tumor model P388 Leukemia (intraperitoneal) in CD2F1 (CDF1) mice
# recorded conditions: endpoint: median survival time; dose: 15.0 mg/kg/injection; schedule: Q01DX005 (ip); vehicle: Klucel (hydroxypropylcellulose) (HPC); higher = longer survival
Inconclusive results and toxic doses are left out.
T/C values for the molecules below.

> print(dat)
                                   molecule       assay.value
1  COc1cc2c3c(c1OC)C=C[C@@H]1CCCN(CC2)[C@H]31   98 % of control
2    Cc1ccc(C)n1-c1ccsc1C(=O)NNC(=O)C(Cl)Cl  106 % of control
3               CC1(C)S(=O)(=O)OCCOS1(=O)=O  119 % of control

May I ask what T/C has been recorded for `C[n+]1ccc(C#N)c(C#N)c1` ?
103 % of control

May I ask what T/C has been recorded for `COc1cc(OC)c(NC(=O)C2=C(C)NC(C)=C(C(=O)Nc3cc(Cl)c(OC)cc3OC)C2c2cccc([N+](=O)[O-])c2)cc1Cl` ?
101 % of control

May I ask what T/C has been recorded for CC(=O)OC(=O)c1c(OC(C)=O)cc(C)c2c1CC(C1(C)CO1)CC2 (stereo unspecified) ?
100 % of control

###

# Tested on: P388 leukemia ip, CD2F1 mice, survival T/C
# test: NCI In Vivo Anticancer Drug Screen. Data for tumor model P388 Leukemia (intraperitoneal) in CD2F1 (CDF1) mice
# recorded conditions: endpoint: median survival time; dose: 50.0 mg/kg/injection; schedule: Q01DX005 (ip); vehicle: Klucel (hydroxypropylcellulose) (HPC); higher = longer survival
Toxic doses and inconclusive results are not listed.
measurement label: T/C

> print(dat)
                            compound.smiles  measurement.label      assay.value
1           Cn1c(=O)oc2cc(NC(N)=O)c(Cl)cc21                T/C  94 % of control
2  Cc1ccc(S(=O)(=O)C(C#N)(CCC(=O)/C=C/c2ccccc2)CCC(=O)/C=C/c2ccccc2)cc1                T/C  99 % of control
3   CCOC(=O)N1CCN(C(=O)c2nc3ccccc3[nH]2)CC1                T/C  99 % of control
4        COc1cc(N)c2c(c1N)C(=O)c1ccccc1C2=O                T/C  98 % of control
5  COC(=O)[C@@H]1[C@H]2CS(=O)(=O)C[C@H]2[C@@H]1C(=O)OC                T/C  99 % of control

Now for a further molecule.
Request - read-out T/C | tested on P388 leukemia ip, CD2F1 mice, survival T/C | molecule `Nc1ccc2cc(Cl)[nH]c(=O)c2c1`
100 % of control

###

T/C values for the compounds below.
# System: P388 leukemia ip, CD2F1 mice, survival T/C
# test: NCI In Vivo Anticancer Drug Screen. Data for tumor model P388 Leukemia (intraperitoneal) in CD2F1 (CDF1) mice
# recorded conditions: endpoint: median survival time; dose: 200.0 mg/kg/injection; schedule: Q01DX001 (ip); vehicle: saline with Tween-80; higher = longer survival
Toxic doses and inconclusive results are not listed.

Below: 4 compounds and their reported T/C.
> print(dat)
                                   compound       assay.value
1  O=C(N/N=C/c1cc(Cl)cc(Cl)c1[O-])c1ccccc1.O=C(N/N=C/c1cc(Cl)cc(Cl)c1[O-])c1ccccc1.[Ni+2]   92 % of control
2         Cc1ccc2ccccc2c1NS(=O)(=O)c1ccccc1   95 % of control
3  COc1cc2c(cc1OC)CN1CSc3cc(OC)c(OC)cc3C1C2 (stereo unspecified)   92 % of control
4  O=C1C(CO)NC(=S)N1c1ccccc1 (stereo unspecified)  102 % of control

May I ask what T/C has been recorded for CS(=O)(=O)OCC(Cc1ccccc1)N1C(=O)c2ccccc2C1=O (stereo unspecified) ?
100 % of control

May I ask what T/C has been recorded for `Cc1ccnc(-n2c(N)cc(=O)[nH]c2=S)c1` ?
100 % of control

May I ask what T/C has been recorded for `CCOC(=O)Nc1c2ccccc2c(NC(=O)OCC)c2ccccc12` ?
102 % of control

May I ask what T/C has been recorded for O=C1NC(=O)C2C3C=CC(C12)C1C2C(=O)NC(=O)C2C31 (stereo unspecified) ?
109 % of control

May I ask what T/C has been recorded for `O=C(Nc1ccccc1)ON=C(c1ccccc1)c1ccccc1` ?
93 % of control

May I ask what T/C has been recorded for `CCCCCn1c(CN2CCCCC2)nc2c1-c1ccccc1C(=O)C2=O` ?
100 % of control

May I ask what T/C has been recorded for `CC(=O)N(c1ccccc1)[Si](C)(C)C` ?
106 % of control

###

# System: P388 leukemia ip, CD2F1 mice, survival T/C
# test: NCI In Vivo Anticancer Drug Screen. Data for tumor model P388 Leukemia (intraperitoneal) in CD2F1 (CDF1) mice
# recorded conditions: endpoint: median survival time; dose: 12.5 mg/kg/injection; schedule: Q04DX003 (ip); vehicle: saline; higher = longer survival
Inconclusive results and toxic doses are left out.
measurement label: T/C

Below: 3 molecules and their reported T/C.
> print(dat)
                                   molecule       assay.value
1                       Cc1cc2ccccc2c[n+]1C  100 % of control
2                       CCOC(=O)CNCc1cccnc1  103 % of control
3  CCC(C)N(CCCOC(=O)c1ccc(N)cc1)C(C)CC (centres undefined)  100 % of control

Now for a further molecule.
May I ask what T/C has been recorded for `CCCCCCCC[N+](C)(C)CC#CC[N+](C)(C)CCCCCCCC` ?
103 % of control

###

# Tested on: P388 leukemia ip, CD2F1 mice, survival T/C
# test: NCI In Vivo Anticancer Drug Screen. Data for tumor model P388 Leukemia (intraperitoneal) in CD2F1 (CDF1) mice
# recorded conditions: endpoint: median survival time; dose: 100.0 mg/kg/injection; schedule: Q04DX002 (ip); vehicle: saline with Tween-80; higher = longer survival
Inconclusive results and toxic doses are left out.
T/C values for the molecules below.

Below: 4 molecules and their reported T/C.
> print(dat)
                                   molecule       assay.value
1  C[C@]12CCNC(=O)C=C1CC[C@@H]1C2CC[C@@]2(C)C1CC[C@@H]2OC(=O)COc1ccc(N(CCCl)CCCl)cc1 (stereo not given in full)  159 % of control
2  Cc1c2ccncc2c(CN2C(=O)c3ccccc3C2=O)c2c3ccccc3n(C)c12   95 % of control
3               S=c1ncnc2c1ccc1[nH][nH]cc12   88 % of control
4              Cc1cc(=O)[nH]c2c1ccc1ccccc12   95 % of control

May I ask what T/C has been recorded for `CCN1C(=O)C(=NO)C(=O)N(CC)C1=S.CCN1C(=O)C(=N[O-])C(=O)N(CC)C1=S.CCN1C(=O)C(=N[O-])C(=O)N(CC)C1=S.[Fe+3]` ?
94 % of control
